Reference source for all entries: paper PMC5082338

- TARGET OR TEST SYSTEM: human recombinant Trypsin (Homo sapiens)
- Construct: no catalogue number for trypsin itself)
- EXPERIMENT: Green protease assay (trypsin inhibitory activity)
- CONDITION SUMMARY: 37 °C, 30 min
- Procedure: Chymotrypsin inhibitor (Soybean trypsin) was purchased from Sigma Aldrich Co. (St. Louis, MO, USA), and Becton Dickinson Falcon™ (Tokyo, Japan). Microtest 384-well 120 μL black assay plates, no lid, non-sterile, were purchased from Becton Dickinson Inc, Franklin Lakes, NJ, USA. […] Then 17.5 μL of assay buffer and 2.5 μL of trypsin (0.1 U/μL) were added and the plate was briefly agitated. […] Inhibition was calculated as above for HCV PR assay.
Recorded IC50 for the following compounds
READOUT TYPE: IC50 (µM)

                                   compound  readout_type  qual  experimental_result
0        OCc1ccc(-c2nccc3c2[nH]c2ccccc23)o1          IC50     >                 1000
1        CC(C)[C@@H]1NC(=O)[C@@H]2CCCN2C1=O          IC50     =                 54.2
2               CC1=C(O)C(=O)C(Cl)=C(O)C1=O          IC50     =                  295
3  O=C1c2cc(O)cc(O)c2C(=O)c2c(O)cc(CO)cc21 [compound 14, ω-hydroxyemodin]          IC50     =                 48.5
